test: recombinant barcode read abundance after kanamycin selection (control-corrected) (log10(CPM+1)); higher = more efficient recombination; sequences stand for … in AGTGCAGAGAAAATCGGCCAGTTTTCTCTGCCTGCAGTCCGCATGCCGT…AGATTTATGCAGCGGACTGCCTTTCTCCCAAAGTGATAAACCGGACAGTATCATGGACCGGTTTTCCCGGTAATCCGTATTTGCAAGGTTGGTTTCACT; site = the 11-nt target;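 further: IS621 recombinase and bridge RNA in Escherichia coli cells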
Catalogue of recombinant barcode read abundance (log10) readings, one per entry.
Respond with the number and no other words.

{"biopolymer sequence": "CCAAGTCCTTGGGTTCTAACCTGTTGCCT (site CCAACACCTAG)", "assay result": 0.0147}
{"biopolymer sequence": "GGTCGAACTTGGGTTCTAACCTGTTGCCT (site GGTCTAACTAG)", "assay result": 0.0343}
{"biopolymer sequence": "CACGGAACTTGGGTTCTAACCTGTTGCCT (site CACGGAACTAG)", "assay result": 1.82}
{"biopolymer sequence": "GTGGTATCTTGGGTTCTAACCTGTTGCCT (site GTGGTAACTAG)", "assay result": 0.268}
{"biopolymer sequence": "GTACAGCCTTGGGTTCTAACCTGTTGCCT (site GTACTGCCTAG)", "assay result": 0.155}
{"biopolymer sequence": "GAGTTGCCTTGGGTTCTAACCTGTTGCGT (site GAGTTACCTAC)", "assay result": 1.96}
{"biopolymer sequence": "GAGTTAACTTGGGTTCTAACCTGTTGCCG (site GAGTTAACTCG)", "assay result": 0.262}
{"biopolymer sequence": "TAGGCGCCTTGGGTTCTAACCTGTTGCGT (site TAGGCGCCTAG)", "assay result": 0.0904}
{"biopolymer sequence": "GCGGTATCTTGGGTTCTAACCTGTTGCCT (site GCGGTATCTAG)", "assay result": 1.21}

(Q) Could you share which recombinant barcode read abundance (log10) value was measured for GCGCTAGCTTGGGTTCTAACCTGTTGCCT (site TCGCTAGCTAG) ?
(A) 0.111
